- Tested on: NIH3T3
- assay info: Cytotoxic Profiling of Annotated Libraries Using Quantitative High-Throughput Screening (AID 1296008); further: on the % scale 0 is the no-effect control and ±100 the full control effect; nearly all actives have a fitted effect of over 60% in size
- condition set: Five cell lines viability, CellTiter-Glo ATP luminescence, 48-72 h; hits give low values
Records with an inconclusive call do not appear.
reported property: max response (%)
The reply should contain only the number, in %.

In: Fill blank: measured max response of the molecule OCCN1C[C@H](O)[C@@H](O)[C@H](O)[C@@H]1CO is ____.
Out: -2.06

In: Look at this molecule and give its reported max response. N#Cc1c(C2CCNCC2)cc(-c2c(O)cccc2OCC2CC2)nc1N
Out: -27

In: What measured max response goes with COc1ccnc2[nH]cc(C(=O)C(=O)N3CCN(C(=O)c4ccccc4)C[C@@H]3C)c12 ?
Out: -11.5

In: State the recorded max response for this entry: CC(=O)O[C@H]1C[C@@H]2CC[C@H]3[C@H]4C[C@H]([N+]5(C)CCCCC5)[C@@H](OC(C)=O)[C@@]4(C)CC[C@@H]3[C@@]2(C)C[C@H]1N1CCCCC1
Out: 4.95

In: Return reported max response; argument: CC(C)(C)[N+]([O-])=Cc1ccc(S(=O)(=O)O)cc1S(=O)(=O)O
Out: 0.254

In: Any idea what its max response is? The molecule is C[C@](Cc1c[nH]c2ccccc12)(NC(=O)OC1C2CC3CC(C2)CC1C3)C(=O)NC[C@H](NC(=O)CCC(=O)O)c1ccccc1 (stereo not given in full)
Out: -5.4

In: Which max response is listed for O=C1c2c(O)cccc2[C@@H]([C@@H]2O[C@H](CO)[C@@H](O)[C@H](O)[C@H]2O)c2cc(CO)cc(O)c21 ?
Out: 4.49

In: Dear colleague, I am looking for the recorded max response of the following molecule: Cc1cc(-c2nnc3n2CCCCC3)c(C)n1-c1ccccc1
Out: 1.52

In: # get_value(readout='max response', item= CN(C)CC[C@H](c1ccc(Cl)cc1)c1ccccn1 )
Out: -0.393

In: Recorded max response of COc1cc(OC)c(NC(=O)Nc2cc(C)on2)cc1Cl , please.
Out: 2.83
